Test: NCI Yeast Anticancer Drug Screen. Data for the mec2-1 strain (AID 157)
Details: S. cerevisiae mec2-1 strain, at 50.0 µM (retest, dose inferred, filed as 5.0), hits give high values
Method: Growth inhibition of yeast strains with defined genetic alterations is measured as a screen for potential anti-cancer activity. Selected strains with alterations in DNA damage repair or cell cycle control were exposed to compounds and growth inhibition was measured relative to vehicle treated controls. The strain used in this assay is mec2-1
The panel holds about 79,000 compounds, 15% with a hit somewhere; the sample as a whole holds those more often.
assay.endpoint: growth inhibition (%)
Just the number in %, nothing appended.

[ask] What value of growth inhibition has been recorded for this entry: COc1cc(C2C3=C(COC3=O)Oc3cc4c(cc32)OCO4)cc(OC)c1O (stereo not given)
[reply] 39

[ask] What value of growth inhibition has been recorded for this entry: COC(=O)c1cnc(Cl)c([N+](=O)[O-])c1
[reply] 99

[ask] What value of growth inhibition has been recorded for this entry: COc1cc(NCCCCNCC(C)(C)C)c2ncccc2c1
[reply] 16

[ask] What value of growth inhibition has been recorded for this entry: Oc1ccc(N=Nc2ccc(Cl)cc2)cc1
[reply] 98

[ask] What value of growth inhibition has been recorded for this entry: O=C1C2=C(c3ccccc31)C(c1ccccc1)N1C(=O)CSC1=N2 (stereo not given)
[reply] 16

[ask] What value of growth inhibition has been recorded for this entry: O=S(=O)(c1ccccc1)N1CN2CN(C1)CN(S(=O)(=O)c1ccccc1)C2
[reply] 79

[ask] What value of growth inhibition has been recorded for this entry: O=C1c2ccccc2N2OC3(N4CCCC4)CCCCC3C12c1ccccc1 (stereo not given)
[reply] 23

[ask] What value of growth inhibition has been recorded for this entry: O=[N+]([O-])c1cn[n+]([O-])c2ccccc12
[reply] 99

[ask] What value of growth inhibition has been recorded for this entry: O=C1c2ccccc2-c2cc3ccccc3c(=O)n21
[reply] 41

[ask] What value of growth inhibition has been recorded for this entry: COC(=O)C(=O)CC(=O)c1cccc(OC)c1
[reply] -15

[ask] What value of growth inhibition has been recorded for this entry: CCN(CC)CCNc1ccc2ncn3c4ccc(O)cc4c(=O)c1c23
[reply] 18

[ask] What value of growth inhibition has been recorded for this entry: COC(=O)c1ccccc1N=NNc1cccc(SC)c1
[reply] 39

[ask] What value of growth inhibition has been recorded for this entry: CCCCCCCCCCCCCCCCCCN(C)C(COC)COP(=O)([O-])OCC[N+](C)(C)C (stereo not given)
[reply] 99

[ask] What value of growth inhibition has been recorded for this entry: CCOc1ccc2nc3ccccc3c(N)c2c1
[reply] 82

[ask] What value of growth inhibition has been recorded for this entry: CC(C)OC(=O)NNc1cc(Cl)ccc1Cl
[reply] 20

[ask] What value of growth inhibition has been recorded for this entry: COC(=O)/C(C#N)=C\NC(=S)C(N)=S
[reply] 99

[ask] What value of growth inhibition has been recorded for this entry: O=S(=O)(NNc1ccccc1)c1ccccc1
[reply] 15

[ask] What value of growth inhibition has been recorded for this entry: CC(C)C(c1ccccc1)c1ccccc1
[reply] -32

[ask] What value of growth inhibition has been recorded for this entry: CCN(CC)CCNc1ccc(C)c2sc3ccc(O)cc3c(=O)c12
[reply] 98

[ask] What value of growth inhibition has been recorded for this entry: CC1(C2CC2)C(C#N)(C#N)C1(C#N)C#N
[reply] 57

[ask] What value of growth inhibition has been recorded for this entry: O=Cc1ccccc1C=O
[reply] 32

[ask] What value of growth inhibition has been recorded for this entry: O=C1C(/C=C/c2ccc(Cl)cc2)=NNC2N1N=C1NC(=O)C3(NN12)c1ccccc1-c1ccccc13 (stereo not given)
[reply] 25

[ask] What value of growth inhibition has been recorded for this entry: CCN(CC)CCNc1ccc2nc(C)n3c4ccc(OC)cc4c(=O)c1c23
[reply] 52

[ask] What value of growth inhibition has been recorded for this entry: Cc1cccc(C)c1NC(=O)C(C#N)C1=C(Cl)C(=O)c2ccccc2C1=O (stereo not given)
[reply] 99

[ask] What value of growth inhibition has been recorded for this entry: COc1ccc2c(c1)CCCC(Br)C2=O (stereo not given)
[reply] 78
